Data origin: patent EP0571593B1

test: Viscosity of aqueous solutions; format: physicochemical; conditions: 30°C, 300mg I/ml
Entries and their Viscosity mPa s (30°C) at 300mg I/ml

Q: Query Viscosity mPa s (30°C) at 300mg I/ml for COCCN(C(=O)CO)c1c(I)c(C(=O)NCC(=O)N(CCOC)c2c(I)c(C(=O)NCC(O)CO)c(I)c(C(=O)NCC(O)CO)c2I)c(I)c(C(=O)NCC(O)CO)c1I (stereo not drawn) [EXAMPLE 40]
Result: 10,2 mPa s

Q: Please list Viscosity mPa s (30°C) at 300mg I/ml recorded for the compound CN(CC(=O)N(C)c1c(I)c(C(=O)NC(CO)C(O)CO)c(I)c(C(=O)NC(CO)C(O)CO)c1I)C(=O)c1c(I)c(NC(=O)CO)c(I)c(C(=O)NCC(O)CO)c1I (stereo not drawn) [EXAMPLE 8]
Result: 7,6 mPa s

Q: Answer with the recorded Viscosity mPa s (30°C) at 300mg I/ml of CC(=O)Nc1c(I)c(C(=O)NCC(O)CO)c(I)c(C(=O)N(CC(=O)Nc2c(I)c(C(=O)NCC(O)CO)c(I)c(C(=O)NCC(O)CO)c2I)CC(O)CO)c1I (stereo not drawn) [EXAMPLE 36] only.
Result: 8,8 mPa s
